molecular target: Plasmepsin-2 (PM-2; Plm II) (Plasmodium falciparum (isolate HB3), UniProt P46925); assay: Plasmepsin-2 enzyme inhibition assay; assay type: biochemical; details: Table 13; read-out: PM-2 IC50
Sequence (P46925 125-453 limits assumed): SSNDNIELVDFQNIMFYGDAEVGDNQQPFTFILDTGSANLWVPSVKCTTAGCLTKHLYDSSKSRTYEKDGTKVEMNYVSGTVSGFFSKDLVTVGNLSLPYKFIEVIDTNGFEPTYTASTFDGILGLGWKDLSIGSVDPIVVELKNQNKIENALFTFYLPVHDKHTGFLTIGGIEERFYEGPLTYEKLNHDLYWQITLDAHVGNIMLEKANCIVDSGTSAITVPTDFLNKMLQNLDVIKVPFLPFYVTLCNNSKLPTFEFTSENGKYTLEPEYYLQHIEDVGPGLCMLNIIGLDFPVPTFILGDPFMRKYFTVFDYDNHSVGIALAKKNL
Would you mind telling me the reported pIC50 of each entry?
Remember the convention: pIC50 equals -log10 of concentration in molar.

What measured pIC50 goes with COc1ccc(C2(c3ccccc3)NC(=N)N(C3CCCCC3)C2=O)cc1 (stereo not shown) ?
7.97

I am curious: what pIC50 value has been reported for `COc1ccc(C2(c3ccc(OC)cc3)NC(=N)N(Cc3ccccc3OC)C2=O)cc1` ?
7.55

So what does the record say about pIC50 for COc1ccc(C2(C3CCCCC3)NC(=N)N(C3CCCCC3)C2=O)cc1 (stereo not shown) ?
7.17

Given the entry `N=C1NC(c2ccc(Br)cc2)(c2ccc(Br)cc2)C(=O)N1C1CCCCC1` , report its measured pIC50.
8.00

I would be grateful if you could share the reported pIC50 for N#Cc1cncc(-c2cccc(C3(C4CC4)NC(=N)N(C4CCCCC4)C3=O)c2)c1 (stereo not shown) .
6.66

Report pIC50 for `COc1ccc(C2(c3ccc(OC)cc3)NC(=N)N(CC3CCOCC3)C2=O)cc1` please.
7.77

So what's the measured pIC50 for this one? `COc1ccc(C2(c3ccc(OC)cc3)NC(=N)N(Cc3ccccc3)C2=O)cc1`
8.14

Which pIC50 value belongs to `COc1ccc(C2(c3ccc(OC)cc3)NC(=N)N(C3CCC3)C2=O)cc1` ?
7.17

Request the reported pIC50 associated with COc1ccc(C2(c3ccccn3)NC(=N)N(C3CCOCC3)C2=O)cc1 (stereo not shown)
6.67

Can you look up the measured pIC50 of COc1cccc(C2(c3ccccc3)NC(=N)N(C3CCCCC3)C2=O)c1 (stereo not shown) for me?
7.60

Could you tell me which pIC50 is on file for `COc1ccc(C2(c3ccc(OC)cc3)NC(=N)N(C3CCN(C(=O)OC(C)(C)C)CC3)C2=O)cc1` ?
8.56

Value lookup for pIC50; key = COc1cccc(-c2cccc(C3(C4CC4)NC(=N)N(C4CCOCC4)C3=O)c2)c1 (stereo not shown)
7.08

Quick one: pIC50 of `COc1ccc(C2(c3ccc(OC)cc3)NC(=N)N(C3CCN(C(C)=O)CC3)C2=O)cc1` ?
8.23
